Could you please report measured half-life for the items listed next?
# assay.explanation: Stability in saline solution assessed as half life at pH 4
# Format: physicochemical
State the answer as a number, implicitly in days.

CC(C)(Cc1nc(CS(=O)(=O)O)no1)N(Cl)Cl has a reported half-life of 106

CC(C)(CC(=O)NCCS(=O)(=O)O)N(Cl)Cl has a reported half-life of 33

CC(C)(Cc1ncnn1CCS(=O)(=O)O)N(Cl)Cl has a reported half-life of 21

---

# assay.explanation: Stability in phosphate buffer assessed as half life at pH 7
# Format: physicochemical
Could you please report measured half-life for the items listed next?

CC(C)(C[N+]1(C)CCOCC1)N(Cl)Cl.[Cl-] has a reported half-life of < 1 days

CC(C)(CS(=O)(=O)[O-])N(Cl)Cl.[Na+] has a reported half-life of > 300 days

CC(C)(C[N+](C)(C)C)N(Cl)Cl.[Cl-] has a reported half-life of > 396 days

---

# assay.explanation: Stability in saline solution assessed as half life at pH 4
# Format: physicochemical
reported.metric: half-life

C[S+](C)CC(C)(C)N(Cl)Cl.[Cl-] has a reported half-life of > 67 days

CC(C)(C[N+]1(C)CCCCC1)N(Cl)Cl.[Cl-] has a reported half-life of > 122 days

CC(C)(CC(=O)OCC[N+]1(C)CCCCC1)N(Cl)Cl.[Cl-] has a reported half-life of > 72 days

CC(C)(C[N+](C)(C)C)N(Cl)Cl.[Cl-] has a reported half-life of > 325 days
